Biological target: GSK3β (Homo sapiens, UniProt P49841)
Sequence (P49841 whole entry, species assumed): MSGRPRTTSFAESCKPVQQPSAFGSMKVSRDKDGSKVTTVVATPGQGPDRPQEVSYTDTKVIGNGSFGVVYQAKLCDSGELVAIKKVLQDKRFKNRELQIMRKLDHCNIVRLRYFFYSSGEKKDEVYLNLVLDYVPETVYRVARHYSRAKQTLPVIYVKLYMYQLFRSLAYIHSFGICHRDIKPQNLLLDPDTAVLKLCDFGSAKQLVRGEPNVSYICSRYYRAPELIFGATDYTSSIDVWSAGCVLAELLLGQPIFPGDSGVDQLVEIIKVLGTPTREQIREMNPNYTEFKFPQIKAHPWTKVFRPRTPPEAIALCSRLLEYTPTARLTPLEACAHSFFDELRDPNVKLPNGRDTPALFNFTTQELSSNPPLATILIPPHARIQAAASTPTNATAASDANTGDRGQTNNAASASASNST
Assay: GSK3beta assay (SPA, biotinylated phosphorylated CREB peptide, ATP-P33)
Assay type: biochemical
Conditions: −log IC50 (M); given as ranges (>8; 7-8; <7); read-out: pIC50 (GSK3beta) (converted)
observation_type: IC50

Some compounds with recorded IC50:
>  <compound>
COc1ccc(Nc2ncc3nnn(-c4cccc(CC#N)c4)c3n2)cn1 [Compound 267]

>  <IC50>
< 1e-08 M

$$$$
>  <compound>
O=S(=O)(CCO)c1cccc(Nc2ncc3nnn(-c4cccc(F)c4)c3n2)c1 [Compound 77]

>  <IC50>
< 1e-08 M

$$$$
>  <compound>
CC(=O)NCc1cccc(-n2nnc3cnc(Nc4cccc(S(C)(=O)=O)c4)nc32)c1 [Compound 113]

>  <IC50>
< 1e-08 M

$$$$
>  <compound>
COc1cccc(-n2nnc3cnc(Nc4cccc(C(C)=O)c4)nc32)c1 [Compound 51]

>  <IC50>
< 1e-08 M

$$$$

Provide IC50 values for the following items, in order.
1. COCC(=O)NCc1cccc(-n2nnc3cnc(Nc4ccc(C(=O)O)cc4)nc32)c1 [Compound 155]
2. COCc1cccc(-n2nnc3cnc(Nc4cccc(S(=O)(=O)NCC(N)=O)c4)nc32)c1 [Compound 141]

## Result
1e-08 to 1e-07 M
1e-08 to 1e-07 M

Count: 3. Required value per item: IC50.
1. CC(=O)c1cccc(Nc2ncc3nnn(-c4ccccc4)c3n2)c1 [Compound 60]
2. COCc1cccc(-n2nnc3cnc(Nc4cccc(CO)c4)nc32)c1 [Compound 144]
3. OCCc1ccc(Nc2ncc3nnn(-c4cccc(CCO)c4)c3n2)cc1 [Compound 260]

## Result
1: < 1e-08 M; 2: < 1e-08 M; 3: < 1e-08 M
